All values here come from PubChem BioAssay AID192.

Reported T/C values for a set of compounds
system: BDF1 mice, B16 melanoma ip, median survival T/C; assay: NCI In Vivo Anticancer Drug Screen. Data for tumor model B16 Melanoma (intraperitoneal) in B6D2F1 (BDF1) mice; conditions: endpoint: median survival time; dose: 25.0 mg/kg/injection; schedule: Q01DX009 (ip); vehicle: Klucel (hydroxypropylcellulose) (HPC); higher = longer survival
Inconclusive results and toxic doses are left out.
readout-name: T/C

Cc1nn(-c2ccccc2)c(N)c1C#N | 100 % of control
CNC(=O)Nc1ccccc1C(=O)NN | 106 % of control
NC(=O)Nc1cc(NC(N)=O)cc(N(CCCl)CCCl)c1 | 108 % of control
C=CCOP(=O)(OCC=C)OCC=C | 96 % of control
O=c1ssc(=Nc2ccccc2)n1-c1ccccc1 | 102 % of control

---

test system: BDF1 mice, B16 melanoma ip, median survival T/C; assay: NCI In Vivo Anticancer Drug Screen. Data for tumor model B16 Melanoma (intraperitoneal) in B6D2F1 (BDF1) mice; conditions: endpoint: median survival time; dose: 0.25 mg/kg/injection; schedule: Q01DX009 (ip); vehicle: saline; higher = longer survival
Toxic doses and inconclusive results are not listed.
readout-name: T/C

COC1C(O)CC(OC2CC(Oc3cc4cc5c(c(O)c4c(O)c3C)C(=O)[C@@H](OC3CC(OC4CC(OC6CC(C)(O)C(OC(C)=O)C(C)O6)C(O)C(C)O4)C(O)C(C)O3)[C@H]([C@H](OC)C(=O)[C@@H](O)[C@@H](C)O)C5)OC(C)C2OC(C)=O)OC1C (some centres undefined) | 152 % of control
C1CN(P2(N3CC3)=NP(N3CC3)(N3CC3)=NP(N3CC3)(N3CC3)=N2)CCO1 (centres undefined) | 101 % of control
O=C1C(N2CCN(CCO)CC2)=C(N2CC2)C(=O)C(N2CCN(CCO)CC2)=C1N1CC1 | 122 % of control
O=C1C(N2CCCC2)=C(N2CC2)C(=O)C(N2CCCC2)=C1N1CC1 | 100 % of control

---

tested on: BDF1 mice, B16 melanoma ip, median survival T/C; test: NCI In Vivo Anticancer Drug Screen. Data for tumor model B16 Melanoma (intraperitoneal) in B6D2F1 (BDF1) mice; conditions: endpoint: median survival time; dose: 100.0 mg/kg/injection; schedule: Q01DX009 (ip); vehicle: saline with Tween-80; higher = longer survival
Toxic doses and inconclusive results are not listed. Square brackets hold non-standard residues; d marks the D form. Peptide text beside a SMILES is read from it. * marks the point of attachment. ξ: configuration not given here. Cbz = O=C(OCc1ccccc1)*; ξNle = CCCCC(N)C(=O)O
Reported T/C values for a set of compounds
readout-name: T/C

NNC(=O)c1cccc(C(=O)NN)c1 | 97 % of control
O=C1c2cccnc2C(=O)c2c(O)ccc(O)c21 | 112 % of control
O=C(N/N=C/c1cccc(S(=O)(=O)O)c1)c1ccncc1 | 99 % of control
Cn1nc(-c2ccccc2)nc1[N+](=O)[O-] | 86 % of control
O=C(OC1C=CC2CCC1C2)c1ccc([N+](=O)[O-])cc1 (stereo unspecified) | 96 % of control
Cc1cccc(C)c1NC(=O)C(C)C | 100 % of control
CSCCC(NC(=O)CN(C)C(=O)OCc1ccccc1)C(=O)O (stereo unspecified) | 100 % of control
S=C(NC1CCCCC1)NC1CCCCC1 | 95 % of control
OC(CCCCl)CC(O)(C(F)(F)F)C(F)(F)F (stereo unspecified) | 102 % of control
COc1ccc2c(c1)C/C(=N\O)C2=O | 92 % of control
CC(=O)Oc1c(Br)cc(Br)cc1-c1ccccc1 | 94 % of control
CC1CCCCN1CCNc1ccc(CO)c2sc3ccccc3c(=O)c12 (stereo unspecified) | 121 % of control
CC(C)CNN(CC(C)C)C(N)=O | 111 % of control
O=C(NC(CO)C(=O)OCc1ccccc1)OCc1ccccc1 (stereo unspecified) | 111 % of control
CCOc1ncc([N+](=O)[O-])c(OCC)n1 | 100 % of control
CCCC(=O)Oc1ccc(/C=N/NC(N)=S)nc1 | 116 % of control
CCCCC(NC(=O)OCc1ccccc1)C(=O)NCC(=O)OC (stereo unspecified) (Cbz-[ξNle]-Gly-OMe) | 115 % of control
CCC(=O)/C=C/C1C(C)=CCCC1(C)C (stereo unspecified) | 102 % of control
C=C1OC(=O)OC1(C)CC(OC)OC (stereo unspecified) | 102 % of control
CCSCCC1(CCC(C)C)C(=O)NC(=Nc2ccccc2)NC1=O (stereo unspecified) | 89 % of control
Nn1c(=O)[nH][nH]c1=O | 115 % of control
CCCC[N+](CCCC)(CCCC)CCCC.Cc1ccc([SH2+])c([SH2+])c1.Cc1ccc([SH2+])c([SH2+])c1.[Fe+3] | 103 % of control
O=Cc1cc([N+](=O)[O-])ccc1Cl | 92 % of control
CC(C)(C)OC(=O)NC(CCC(=O)OCc1ccccc1)C(=O)ON1C(=O)CCC1=O (stereo unspecified) | 90 % of control
O=CNC(CSSCC(NC=O)C(=O)O)C(=O)O (stereo unspecified) | 93 % of control
O=C(O)CCS(=O)(=O)CCC(=O)O | 100 % of control

---

tested on: BDF1 mice, B16 melanoma ip, median survival T/C; assay: NCI In Vivo Anticancer Drug Screen. Data for tumor model B16 Melanoma (intraperitoneal) in B6D2F1 (BDF1) mice; details: endpoint: median survival time; dose: 25.0 mg/kg/injection; schedule: Q04DX003 (ip); vehicle: Klucel (hydroxypropylcellulose) (HPC); higher = longer survival
Inconclusive results and toxic doses are left out.
readout-name: T/C

C=CCN(CC=C)c1ccc(N(CC)CC)cc1 | 99 % of control
O=C1C=CC(=C(c2ccccc2)c2ccccc2)C=C1 | 100 % of control
CC(Cl)CN(CC(C)Cl)C(=O)OCC(NC(=O)OCc1ccccc1)C(=O)OCc1ccccc1 (stereo not given) | 86 % of control
CN(C)CCN(Cc1ccccc1)c1ccccc1 | 95 % of control
CCCCCCCCCCCCCCCCCCNC(=O)Nc1ccc(C(C)C)cc1 | 86 % of control

---

system: BDF1 mice, B16 melanoma ip, median survival T/C; experiment: NCI In Vivo Anticancer Drug Screen. Data for tumor model B16 Melanoma (intraperitoneal) in B6D2F1 (BDF1) mice; conditions: endpoint: median survival time; dose: 1.56 mg/kg/injection; schedule: Q01DX009 (ip); vehicle: Klucel (hydroxypropylcellulose) (HPC)
Toxic doses and inconclusive results are not listed. The calls were made as follows: active = survival T/C of 150% or more; inactive = T/C below 125% in these data.
Possible outcomes: yes for active, no for inactive

NC(=O)Nc1cc(NC(N)=O)cc(N(CCCl)CCCl)c1 | no
N=P(N[P+](N)(c1ccccc1)c1ccccc1)(c1ccccc1)c1ccccc1 | no
COC12C(COC(=O)NCCO)C3=C(C(=O)C(C)=C(N)C3=O)N1CC1NC12 (stereo unspecified) | no
O=C1C=CC(=O)c2c(O)c(CO)c(CO)c(O)c21 | no
Cc1cc(C)nc(NS(=O)(=O)c2ccc(N=Nc3nc4[nH]c(N)nc(=S)c4[nH]3)cc2)n1 | no
NC1=NC(=S)C2N=C(N=Nc3ccc(C(=O)NC(CCC(=O)O)C(=O)O)cc3)N=C2N1 (stereo unspecified) | no
COC(=O)C1=C(C)NC(=O)NC1c1ccc(N(CCCl)CCCl)c(OC)c1 (stereo unspecified) | yes
N#Cc1ccccc1N=NNc1ccccc1C#N | no
CCCCOc1ccc(OCCCCCCCCCC[N+](C)(C)C)cc1 | no
C=C1C(=O)OC2/C=C(\CO)C(OC(C)=O)CC(O)/C(C)=C/C(OC(=O)C(C)CC)C12 (stereo unspecified) | no
CCCCCCCCCCCCCCCC(=O)N(CCCN(CC)CC)C(C)CCCN(CC)CC (stereo unspecified) | no

---

system: BDF1 mice, B16 melanoma ip, median survival T/C; experiment: NCI In Vivo Anticancer Drug Screen. Data for tumor model B16 Melanoma (intraperitoneal) in B6D2F1 (BDF1) mice; conditions: endpoint: median survival time; dose: 6.25 mg/kg/injection; schedule: Q01DX009 (ip); vehicle: Klucel (hydroxypropylcellulose) (HPC); higher = longer survival
Inconclusive results and toxic doses are left out.
readout-name: T/C

C=C1C(=O)OC2C1CCC(C)C1CCC(=O)OC12C (stereo not given) | 103 % of control
O=C1C(Cl)=C(c2ccccc2)C(=O)C(Cl)=C1c1ccccc1 | 114 % of control
O=NO.O=N[O-].O=N[O-].[Co+3].[NH2-].[NH2-].[NH2-].[NH2-] | 88 % of control
COC(CBr)c1ccccc1 (stereo not given) | 104 % of control
CC1(C)NC(=O)C(/C=C/c2ccccc2)O1 (stereo not given) | 96 % of control
Cc1c(Cl)cccc1NC(=O)Oc1cc(Cl)c(Cl)cc1Cl | 96 % of control
NC(=O)Nc1cc(NC(N)=O)cc(N(CCCl)CCCl)c1 | 91 % of control
CN(Cc1cnc2nc(N)nc(N)c2n1)c1c(Cl)cc(C(=O)NC(CCC(=O)O)C(=O)O)cc1Cl (stereo not given) | 111 % of control
Clc1c(Cl)c(CBr)c(Cl)c(CBr)c1Cl | 105 % of control
COc1cccc(C2CCN(C)C2)c1 (stereo not given) | 89 % of control
Cc1cccc(C)c1N.[C-]#[O+].[C-]#[O+].[C-]#[O+].[Cr] | 103 % of control
CCOC(=O)c1ccc(=O)[nH]c1.[Ag] | 100 % of control
CNC(=O)OCc1c(COC(=O)NC)c(C)n(-c2ccc(OC)cc2)c1C | 111 % of control
O=C1NC(c2ccccc2)(c2ccccc2)C(=O)N1SC(Cl)(Cl)Cl | 92 % of control
CCCCOc1ccc(OCCCCCCCCCC[N+](C)(C)C)cc1 | 96 % of control
